# Measurement Protocol: Post hoc rezafungin exposure and PK parameter estimates for patients of the STRIVE trial
# Assay type: in vivo, human
# Reported Conditions: human, plasma, iv, STRIVE patients, n = 68; individual post hoc estimates from final model; mean (SD); SD
Numbered stars: 1 amine (or outer) side, 2 acyl side, 3 side chain; on linkers, the order of the positions; unused ones are H or OH. Bridge positions count the residues as written; N and C are the ends. Square brackets hold non-standard residues; d marks the D form. Peptide text beside a SMILES is read from it. * marks the point of attachment. Orn(4R-OH,5R-OCH2CH2NMe3+) = C[N+](C)(C)CCO[C@@H](N[*:3])[C@H](O)C[C@H](N[*:1])C(=O)[*:2]; pTerphenylCO(4''-OnC5H11) = CCCCCOc1ccc(-c2ccc(-c3ccc(C(=O)*)cc3)cc2)cc1; hTyr(3S-OH,4S-OH) = N[C@H](C(=O)O)[C@H](O)[C@@H](O)c1ccc(O)cc1; Pro(3S-OH,4S-Me) = C[C@H]1CN[C@H](C(=O)O)[C@H]1O; Hyp = O=C(O)[C@@H]1C[C@@H](O)CN1
Property: clearance (mL/min)
A number alone suffices; assume mL/min.

Quick check: clearance of CCCCCOc1ccc(-c2ccc(-c3ccc(C(=O)N[C@H]4C[C@@H](O)[C@@H](OCC[N+](C)(C)C)NC(=O)[C@@H]5[C@@H](O)[C@@H](C)CN5C(=O)[C@H]([C@@H](C)O)NC(=O)[C@H]([C@H](O)[C@@H](O)c5ccc(O)cc5)NC(=O)[C@@H]5C[C@@H](O)CN5C(=O)[C@H]([C@@H](C)O)NC4=O)cc3)cc2)cc1 [rezafungin] ({pTerphenylCO(4''-OnC5H11)}-[Orn(4R-OH,5R-OCH2CH2NMe3+)]T[Hyp][hTyr(3S-OH,4S-OH)]T[Pro(3S-OH,4S-Me)]; lactam 1-C) ?
6.08

###

# Measurement Protocol: Post hoc rezafungin exposure and PK parameter estimates for patients of the STRIVE trial
# Assay type: in vivo, human
# Reported Conditions: human, plasma, iv, STRIVE patients, n = 68; volume of distribution at steady state, individual post hoc estimates; mean (SD); SD; read-out: Vss
Numbered stars: 1 amine (or outer) side, 2 acyl side, 3 side chain; on linkers, the order of the positions; unused ones are H or OH. Bridge positions count the residues as written; N and C are the ends. Square brackets hold non-standard residues; d marks the D form. Peptide text beside a SMILES is read from it. * marks the point of attachment. Orn(4R-OH,5R-OCH2CH2NMe3+) = C[N+](C)(C)CCO[C@@H](N[*:3])[C@H](O)C[C@H](N[*:1])C(=O)[*:2]; pTerphenylCO(4''-OnC5H11) = CCCCCOc1ccc(-c2ccc(-c3ccc(C(=O)*)cc3)cc2)cc1; hTyr(3S-OH,4S-OH) = N[C@H](C(=O)O)[C@H](O)[C@@H](O)c1ccc(O)cc1; Pro(3S-OH,4S-Me) = C[C@H]1CN[C@H](C(=O)O)[C@H]1O; Hyp = O=C(O)[C@@H]1C[C@@H](O)CN1
Property: Vd (L)
A number alone suffices; assume L.

Quick check: Vd of CCCCCOc1ccc(-c2ccc(-c3ccc(C(=O)N[C@H]4C[C@@H](O)[C@@H](OCC[N+](C)(C)C)NC(=O)[C@@H]5[C@@H](O)[C@@H](C)CN5C(=O)[C@H]([C@@H](C)O)NC(=O)[C@H]([C@H](O)[C@@H](O)c5ccc(O)cc5)NC(=O)[C@@H]5C[C@@H](O)CN5C(=O)[C@H]([C@@H](C)O)NC4=O)cc3)cc2)cc1 [rezafungin] ({pTerphenylCO(4''-OnC5H11)}-[Orn(4R-OH,5R-OCH2CH2NMe3+)]T[Hyp][hTyr(3S-OH,4S-OH)]T[Pro(3S-OH,4S-Me)]; lactam 1-C) ?
61

###

# Measurement Protocol: Post hoc rezafungin exposure and PK parameter estimates for patients of the STRIVE trial
# Format: in vivo, human
# Reported Conditions: human, plasma, iv, STRIVE patients, n = 68; individual post hoc estimates from final model; median (range)
Numbered stars: 1 amine (or outer) side, 2 acyl side, 3 side chain; on linkers, the order of the positions; unused ones are H or OH. Bridge positions count the residues as written; N and C are the ends. Square brackets hold non-standard residues; d marks the D form. Peptide text beside a SMILES is read from it. * marks the point of attachment. Orn(4R-OH,5R-OCH2CH2NMe3+) = C[N+](C)(C)CCO[C@@H](N[*:3])[C@H](O)C[C@H](N[*:1])C(=O)[*:2]; pTerphenylCO(4''-OnC5H11) = CCCCCOc1ccc(-c2ccc(-c3ccc(C(=O)*)cc3)cc2)cc1; hTyr(3S-OH,4S-OH) = N[C@H](C(=O)O)[C@H](O)[C@@H](O)c1ccc(O)cc1; Pro(3S-OH,4S-Me) = C[C@H]1CN[C@H](C(=O)O)[C@H]1O; Hyp = O=C(O)[C@@H]1C[C@@H](O)CN1
Property: clearance (mL/min)
A number alone suffices; assume mL/min.

Quick check: clearance of CCCCCOc1ccc(-c2ccc(-c3ccc(C(=O)N[C@H]4C[C@@H](O)[C@@H](OCC[N+](C)(C)C)NC(=O)[C@@H]5[C@@H](O)[C@@H](C)CN5C(=O)[C@H]([C@@H](C)O)NC(=O)[C@H]([C@H](O)[C@@H](O)c5ccc(O)cc5)NC(=O)[C@@H]5C[C@@H](O)CN5C(=O)[C@H]([C@@H](C)O)NC4=O)cc3)cc2)cc1 [rezafungin] ({pTerphenylCO(4''-OnC5H11)}-[Orn(4R-OH,5R-OCH2CH2NMe3+)]T[Hyp][hTyr(3S-OH,4S-OH)]T[Pro(3S-OH,4S-Me)]; lactam 1-C) ?
5.75

meta.source: paper PMC8522775
